- test_system: T1, 16mer biotinylated human IL-13 peptide number 24 (human, N-terminal biotin; C-terminal amide)
- T1 construct: format Biotin-SGSG-PEPTIDE-amide; also called Peptide 24
- T1 peptide: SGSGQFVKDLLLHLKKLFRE
- assay_comment: BIAcore analysis 3, antibody over biotinylated peptide on SA chip
measured_quantity: koff (s⁻¹)

binder	test_result
chimaeric 6A1 (antibody, human IgG1, V domains shown, Parent murine 6A1 V regions on human IgG1/k wild type C regions, expressed in CHO cells; also called 6A1c; 6A1 chimaeric antibody) VH: EIQLQQSVAELVRPGASVRLSCTASGFYIKDTYMHWVIQRPEQGLEWIGTIDPANGNTKYVPKFQGKATITADTSSNTAYLRLSSLTSEDTAIYYCARSIYDDYHYDDYYAMDYWGQGTSVTVSS VL: DVLMTQTPLSLPVSLGDQASISCRSSQNIVHINGNTYLEWYLQKPGQSPKLLIYKISDRFSGVPDRFSGSGSGTDFTLKISRVEAEDLGVYYCFQGSHVPWTFGGGTKLEIK	0.000919
L2+A1 (antibody, human IgG1, kappa, V domains shown, Humanised 6A1, VH construct A1 and VL construct L2; also called A1L2) VH: QVQLVQSGAEVKKPGSSVKVSCKASGFYIKDTYMHWVRQAPGQGLEWMGTIDPANGNTKYVPKFQGRVTITADESTSTAYMELSSLRSEDTAVYYCARSIYDDYHYDDYYAMDYWGQGTLVTVSS VL: DIVMTQSPLSLPVTPGEPASISCRSSQNIVHINGNTYLEWYLQKPGQSPRLLIYKISDRFSGVPDRFSGSGSGTDFTLKISRVEADDVGVYYCFQGSHVPWTFGQGTKLEIKR	0.00167
L1+A1 (antibody, human IgG1, kappa, V domains shown, Humanised 6A1, VH construct A1 and VL construct L1, human gamma1 wild type / kappa constant regions; also called A1L1; humanised anti-IL-13 mAb L1+A1) VH: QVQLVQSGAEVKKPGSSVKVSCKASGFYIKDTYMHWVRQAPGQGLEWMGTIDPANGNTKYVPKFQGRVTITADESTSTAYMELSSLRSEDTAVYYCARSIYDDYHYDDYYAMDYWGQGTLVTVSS VL: DIVMTQSPLSLPVTPGEPASISCRSSQNIVHINGNTYLEWYLQKPGQSPRLLIYKISDRFSGVPDRFSGSGSGTDFTLKISRVEADDVGIYYCFQGSHVPWTFGQGTKLEIKR	0.0017
